System: Kunming mice
Assay: Influence on hypnosis effect with pentobarbital sodium doses at the threshold (50 mg/kg i.p.)
Type: in vivo
Settings: 100 mg/kg intragastric single dose, pentobarbital sodium 50 mg/kg i.p. 60 min later, x ± s, n = 10
Description: 1.1 Animals for experiments: Kunming mice, weighting 18.9˜22.2 g for females, and 20.2˜23.0 g for males, licensed under SCXK-(Ji) 2007-0003, and provided by The experimental animal centre, Jilin University. […] Number of autonomic activities is detected by leneve Test for homogeneity of variance. […] Sleep latency and sleep duration are recorded in min, averaged by group, represented by standard deviation, and undergo statistical analysis using ANOVA.
readout: time to sleep

Lab book: time to sleep of C=Cc1c(C#N)cc(-c2cc(=O)c3c(C=CC)cc(Cc4ccccc4)cc3o2)cc1[N+](=O)[O-] [Example 20] noted as 3.18 ± 1.10 min

Lab book: time to sleep of COc1cc(OC)c2c(=O)cc(-c3ccc(OC)c(O)c3)oc2c1 [Example 4, 3′-hydroxyl-5,7,4′-trimethoxyl-flavone] noted as 2.51 ± 1.61 min

Lab book: time to sleep of C=Cc1ccc(-c2cc(=O)c3cc(C#N)c(Cc4ccccc4)c(C=CC)c3o2)cc1[N+](=O)[O-] [Example 32] noted as 3.86 ± 2.35 min

Lab book: time to sleep of COc1cc(OC)c2c(=O)cc(-c3ccc(OC)c(OC)c3)oc2c1 [Example 36] noted as 3.09 ± 1.25 min

Cited source: patent US9669003B2
